system: Human RSV-A (“Long” strain); test: RSV in vitro cytoprotection assay (CPE, ATPlite) in HEp-2 cells; format: cell-based; conditions: human respiratory syncytial virus, 96 h; HEp-2 cells, 4-day incubation, ATPlite readout; read-out: Human RSV-A (“Long” strain) EC50
measuredEndpoint: EC50

Completed entries (count: 2):
compound	EC50
O=C(Nc1c(F)cccc1F)c1cc2c(s1)-c1c(cc(F)c(F)c1F)N(C(=O)c1ccc(NC(=O)c3cccnc3N3CC4(CCOCC4)C3)cc1)CC2 [Example 78]	< 10 nM
Cc1ccc(C(=O)Nc2ccc(C(=O)N3CCc4cc(C(=O)Nc5c(C)cccc5F)sc4-c4ccccc43)cc2)c(N2CC3(CCOCC3)C2)n1 [Example 276]	10 to 50 nM

Prompt line: Identify measured EC50 associated with O=C(Nc1ccc(C(=O)N2CCc3cc(-c4nc5ccccc5[nH]4)sc3-c3ccc(F)cc32)cc1)c1cc2ccccc2nc1N1CC2(CCOCC2)C1 [Example 10]
Response line: 10 to 50 nM

Prompt line: For the compound Cc1cnc(N2CC3(CCOCC3)C2)c(C(=O)Nc2ccc(C(=O)N3CCc4cc(-c5cnc6[nH]ncc6c5)sc4-c4ccc(F)cc43)cc2)c1 [Example 179] , give its reported EC50.
Response line: < 10 nM

Prompt line: Supply recorded EC50 for CCS(=O)(=O)CCNc1ncccc1C(=O)Nc1ccc(C(=O)N2CCc3cc(C(=O)Nc4c(F)cccc4F)sc3-c3ccc(F)cc32)cc1 [Example 59] here.
Response line: > 50 nM

Prompt line: Retrieve EC50 measured for Cc1ccc(C(=O)Nc2ccc(C(=O)N3CCc4c(sc(C(=O)Nc5ncccc5F)c4F)-c4ccccc43)cc2)c(N2CC3(CCOCC3)C2)n1 [Example 218] and print it.
Response line: < 10 nM

====

system: Human RSV-A (“Long” strain); experiment: RSV in vitro cytoprotection assay (CPE, ATPlite) in HEp-2 cells; format: cell-based; settings: human respiratory syncytial virus, 96 h; HEp-2 cells, 4-day incubation, ATPlite readout; read-out: Human RSV-A (“Long” strain) EC50
measuredEndpoint: EC50

smilesString	studyTarget	EC50
Cc1cnc(N2CC3(CCOCC3)C2)c(C(=O)Nc2ccc(C(=O)N3CCc4cc(C(=O)Nc5c(C)cccc5C)sc4-c4ccc(F)cc43)cc2)c1	Human RSV-A (“Long” strain)	< 10 nM
Cc1cnc(N2CC3(CCOCC3)C2)c(C(=O)Nc2ccc(C(=O)N3CCc4cc(NC(=O)Oc5ccccc5)sc4-c4ccccc43)cc2)c1	Human RSV-A (“Long” strain)	10 to 50 nM

Pending compound:
Prompt line: Supply measured EC50 of `Cc1cnc(N2CC3(CCOCC3)C2)c(C(=O)Nc2ccc(C(=O)N3CCc4cc(NC(=O)c5c(F)cccc5F)sc4-c4ccccc43)cc2)c1` in your reply.
Response line: < 10 nM

====

system: Human RSV-A (“Long” strain); test: RSV in vitro cytoprotection assay (CPE, ATPlite) in HEp-2 cells; assay type: cell-based; conditions: human respiratory syncytial virus, 96 h; HEp-2 cells, 4-day incubation, ATPlite readout; read-out: Human RSV-A (“Long” strain) EC50
pEC50: −log10 of the molar value.
measuredEndpoint: pEC50

Here is how some compounds turned out for pEC50.
compound	measurement
Cc1cnc(N2CC3(CCOCC3)C2)c(C(=O)Nc2ccc(C(=O)N3CCc4sc(-c5nc6ccccc6[nH]5)cc4-c4ccccc43)cc2)c1 [Example 262]	7.30 to 8.00
O=C(Nc1c(F)cc(F)cc1Cl)c1cc2c(s1)-c1ccc(F)cc1N(C(=O)c1ccc(NC(=O)c3cc(-c4cccs4)cnc3N3CC4(CCOCC4)C3)cc1)CC2 [Example 28]	7.30 to 8.00

Next up:
Prompt line: Kindly indicate its recorded pEC50. Item: Cc1cnc(N2CC3(CCOCC3)C2)c(C(=O)Nc2ccc(C(=O)N3CCc4cc(-c5nc(C)c(C)[nH]5)sc4-c4ccc(F)cc43)cc2)c1 [Example 158]
Response line: > 8.00

====

System: Human RSV-A (“Long” strain)
Test: RSV in vitro cytoprotection assay (CPE, ATPlite) in HEp-2 cells
Type: cell-based
Settings: human respiratory syncytial virus, 96 h; HEp-2 cells, 4-day incubation, ATPlite readout; read-out: Human RSV-A (“Long” strain) EC50
Procedure: RSV is a single stranded negative sense RNA virus that causes respiratory tract infections which can be dangerous to infants, the elderly, and immunosuppressed individuals. Currently there is no vaccine, and therapeutic options are both costly and of limited effectiveness. These approved treatments are Ribavirin, and Palivizumab/Synagis (a monoclonal antibody). […] Cell viability is measured several days later along with separate measurements of compound cytotoxicity. […]
pEC50: −log10 of the molar value.
Below, each of the compounds is paired with its reported pEC50 value.

smilesString	pEC50
Cc1ccc(C(=O)Nc2ccc(C(=O)N3CCc4cc(NC(=O)c5c(F)cccc5Cl)sc4-c4ccccc43)cc2)c(N2CC3(CCOCC3)C2)n1	7.30 to 8.00
Cc1cnc(N2CC3(CCOCC3)C2)c(C(=O)Nc2ccc(C(=O)N3CCc4cc(-c5c[nH]nc5C5CC5)sc4-c4ccc(F)cc43)cc2)c1	> 8.00
O=C(Nc1ccc(C(=O)N2CCc3cc(-c4nc5ccccc5[nH]4)sc3-c3c2ccc(F)c3F)cc1)c1cccnc1N1CC2(CCOCC2)C1	7.30 to 8.00
O=C(Nc1ccc(C(=O)N2CCc3cc(-c4nc5ccccc5[nH]4)sc3-c3ccc(F)cc32)cc1)c1cccnc1N1CC2(CCOCC2)C1	7.30 to 8.00
Cc1cnc(N2CC3(CCOCC3)C2)c(C(=O)Nc2ccc(C(=O)N3CCc4cc(-c5nnc(C)o5)sc4-c4cc(F)c(F)cc43)cc2)c1	> 8.00
Cc1cnc(N2CC3(CCOCC3)C2)c(C(=O)Nc2ccc(C(=O)N3CCc4cc(-c5nnc(C)s5)sc4-c4ccc(F)cc43)cc2)c1	> 8.00

Prompt line: Give the reported pEC50 for this compound. `Cc1cnc(N2CC3(CCOCC3)C2)c(C(=O)Nc2ccc(C(=O)N3CCc4c(sc(C(=O)Nc5c(F)cccc5Cl)c4F)-c4ccccc43)cc2)c1`
Response line: > 8.00

Prompt line: Annotate the compound `O=C(Nc1ccc(C(=O)N2CCc3c(sc(C(=O)Nc4c(F)cccc4F)c3F)-c3ccccc32)cc1)c1cc2c(nc1N1CC3(CCOCC3)C1)CCC2` with its measured pEC50.
Response line: > 8.00

====

Catalogue of EC50 readings, one per entry.
test system: Human RSV-A (“Long” strain); assay: RSV in vitro cytoprotection assay (CPE, ATPlite) in HEp-2 cells; format: cell-based; conditions: human respiratory syncytial virus, 96 h; HEp-2 cells, 4-day incubation, ATPlite readout; read-out: Human RSV-A (“Long” strain) EC50

Sample records with EC50:
molecule	EC50
Cc1cnc(N2CC3(CCOCC3)C2)c(C(=O)Nc2ccc(C(=O)N3CCc4cc(C(=O)NC5CCOCC5)sc4-c4ccc(F)cc43)cc2)c1 [Example 130]	< 10 nM
Cc1cnc(N2CC3(CCOCC3)C2)c(C(=O)Nc2ccc(C(=O)N3CCc4cc(C(=O)Nc5c(F)cccc5C(F)(F)F)sc4-c4ccc(F)cc43)cc2)c1 [Example 5]	< 10 nM
Cc1cnc(N2CC3(CCOCC3)C2)c(C(=O)Nc2ccc(C(=O)N3CCc4c(sc(-c5nnco5)c4F)-c4ccc(F)cc43)cc2)c1 [Example 143]	< 10 nM
Cc1cnc(N2CC3(CCOCC3)C2)c(C(=O)Nc2ccc(C(=O)N3CCc4cc(-c5cccnc5)sc4-c4ccc(F)cc43)cc2)c1 [Example 167]	< 10 nM
O=C(Nc1ccc(C(=O)N2CCc3cc(-c4nc5cccc(F)c5[nH]4)sc3-c3ccc(F)cc32)cc1)c1cc(F)cnc1N1CC2(CCOCC2)C1 [Example 43]	10 to 50 nM

Proceeding to the next molecule to report its EC50.
Prompt line: State its EC50 for this molecule: O=C(Nc1c(F)cccc1Cl)c1cc2c(s1)-c1ccc(F)cc1N(C(=O)c1ccc(NC(=O)c3cccnc3N3CC4(CCOCC4)C3)cc1)CC2 [Example 20]
Response line: < 10 nM

====

tested on: Human RSV-A (“Long” strain); experiment: RSV in vitro cytoprotection assay (CPE, ATPlite) in HEp-2 cells; type: cell-based; conditions: human respiratory syncytial virus, 96 h; HEp-2 cells, 4-day incubation, ATPlite readout; read-out: Human RSV-A (“Long” strain) EC50
pEC50: −log10 of the molar value.
measuredEndpoint: pEC50

Sample answers from the record:
smilesString	measuredEndpoint	measurement
Cc1cnc(N2CC3(CCOCC3)C2)c(C(=O)Nc2ccc(C(=O)N3CCc4c(sc(C(=O)Nc5c(F)cc(F)cc5F)c4F)-c4ccccc43)cc2)c1	pEC50	> 8.00
Cc1cnc(N2CC3(CCOCC3)C2)c(C(=O)Nc2ccc(C(=O)N3CCc4cc(-c5ncccc5F)sc4-c4ccc(F)cc43)cc2)c1	pEC50	> 8.00
O=C(Nc1ccc(C(=O)N2CCc3cc(-c4ccn[nH]4)sc3-c3ccc(F)cc32)cc1)c1cc(F)cnc1N1CC2(CCOCC2)C1	pEC50	7.30 to 8.00
Cc1cnc(N2CC3(CCOCC3)C2)c(C(=O)Nc2ccc(C(=O)N3CCc4cc(-c5cn(C)nc5N)sc4-c4ccc(F)cc43)cc2)c1	pEC50	> 8.00

Prompt line: Report measured pEC50; entry is `Cc1cnc(N2CC3(CCOCC3)C2)c(C(=O)Nc2ccc(C(=O)N3CCc4cc(-c5c[nH]c6ncccc56)sc4-c4ccc(F)cc43)cc2)c1`
Response line: > 8.00

Prompt line: Report pEC50 for `O=C(Nc1ncccc1Cl)c1cc2c(s1)-c1ccc(F)cc1N(C(=O)c1ccc(NC(=O)c3cc4c(nc3N3CC5(CCOCC5)C3)CCC4)cc1)CC2`
Response line: > 8.00
